- Test system: HCT-116 colon
- ASSAY NOTES: NCI-60 one-dose screen, 48 h
- SETTINGS: 10 µM unless noted
Compounds without any hit were thinned out: in the full panel of roughly 83,000, 20% have a hit. Calls of active or inactive are those of the source. Rule for the calls: active = growth percent below 10; inactive = the rest.
Would you mind answering with one of these outcomes? 1.0 = active, 0.0 = inactive

As a guide, the following entries are already answered.
MOLECULE | GROUP LABEL
NCCOc1ncccc1/C=C1\c2ccccc2-c2ccc(C(F)F)cc21 | 0.0
COc1ccc(/C=C2\Oc3cc(OCCN4CCC(Cc5ccccc5)CC4)ccc3C2=O)cc1OC | 0.0
Cc1oc2nc[nH]c(=O)c2c1C(=O)/C=C/c1ccc(Br)cc1 | 1.0
O=c1ccc(N=Nc2ccccc2)ccc1Cl | 0.0
CNC(C)[C@H]1CCC2C3CCC4C[C@@H](N(C)C(=O)c5ccccc5)CC[C@]4(C)C3CC[C@@]21C (stereo not given in full) | 1.0

I'd appreciate the recorded outcome for `Brc1ccc2[nH]cc(-c3nc(-c4c[nH]c5ccncc45)cs3)c2c1` from this test. 1.0

I'd appreciate the recorded outcome for `CCOC(=O)c1c2c(n(-c3ccc(C#N)cc3)c1-c1ccccc1)C=CCC2` from this test. 0.0

I'd appreciate the recorded outcome for COc1ccc2cc(C(C)C(=O)Nc3ccc(-c4n[nH]c(=S)n4C4CCCCC4)cc3)ccc2c1 (stereo not given) from this test. 0.0

I'd appreciate the recorded outcome for `Cc1ccc(C(=O)N/N=C/c2cccc([N+](=O)[O-])c2)cn1` from this test. 0.0

I'd appreciate the recorded outcome for CC(=O)OC[C@H]1OC(Sc2sc(C(=O)c3ccc(C)cc3)c(N)c2-c2nc3ccccc3s2)[C@H](OC(C)=O)[C@@H](OC(C)=O)[C@@H]1OC(C)=O (stereo not given in full) from this test. 0.0

---

- Test system: OVCAR-8 ovarian
- ASSAY NOTES: NCI-60 one-dose screen, 48 h (100 = growth as untreated, 0 = no growth, -100 = all killed)
- SETTINGS: 10 µM unless noted
About 83,000 compounds went through this panel and 20% of them were active in at least one assay; those are over-represented in the sample as a whole.
Could you mark each record true if its growth falls strictly under 70%, and false if it equals or exceeds it?

As a guide, the following entries are already answered.
COMPOUND | GROUP LABEL
COc1ccc2sc3c(NCCO)nc4ccccc4c3c(=O)c2c1 | false
C/C(=C\C(=O)c1ccc(Cl)cc1)c1ccc(Cl)cc1 | false
O=c1c2cc(F)ccc2sc2c(NCCCNCCO)nc3ccccc3c12 | true
c1ccc(Nc2cc(-c3cccnc3)[nH]n2)cc1 | false
CCOC(=O)c1cnn2c3ccccc3n(S(=O)(=O)c3ccc(OC)cc3)c12 | true
CN1CCN(CC(=O)N2c3cccc4cccc(c34)N(C(=O)CN3CCN(C)CC3)C2c2cn(-c3ccccc3)nc2-c2cccc([N+](=O)[O-])c2)CC1 | true
Oc1ccc(CCl)c2cccnc12 | false
O=C(CCOCCNC(=O)COc1ccc2c(c1)OCC(c1ccc(F)cc1)C2=O)NCCCC(O)(P(=O)(O)O)P(=O)(O)O (centres undefined) | false
NS(=O)(=O)c1ccc(-n2nc(C(=O)N/N=C\c3ccc(F)cc3)cc2-c2ccc(Br)cc2)cc1 | false
Cc1onc2c(-c3ccccc3)n[nH]c(=O)c12 | false

Does the reported growth of the following compound sit strictly below 70%? `COc1cc(C(=O)/C=C/c2sc(Cl)nc2Cl)cc(OC)c1OC` true

Does the reported growth of the following compound sit strictly below 70%? `CCCCn1c(-c2ccc(-c3nc(-c4ccc(Cl)cc4)no3)cc2)nc(-c2ccccc2)c1-c1ccccc1` false

Does the reported growth of the following compound sit strictly below 70%? `COC(=O)[C@H](C)NC(=O)NC(=O)NC(=O)CI` false

---

- System: SF-295 CNS
- ASSAY NOTES: NCI-60 one-dose screen, 48 h
- SETTINGS: 10 µM unless noted
Compounds without any hit were thinned out: in the full panel of roughly 83,000, 20% have a hit. Activity calls are given as the source filed them. The calls were made as follows: active = growth percent below 10; inactive = the rest.
Would you mind answering with one of these outcomes? t = active, f = inactive

As a guide, the following entries are already answered.
COMPOUND | ASSAY SYSTEM | GROUP LABEL
COC(=O)Nc1ccc(-c2nc(-c3cccc(OC)c3)c(-c3ccnc(Br)c3)[nH]2)cc1 | SF-295 CNS | t
O=C(Cc1ccc(F)c(Cl)c1)Nc1cc(C2(C(F)(F)F)CC2)nn1CC1CCCCC1 | SF-295 CNS | t
CC(=O)OC[C@H]1OC(Sc2sc(C(=O)c3ccc(Br)cc3)c(N)c2-c2nc3ccccc3s2)[C@H](OC(C)=O)[C@@H](OC(C)=O)[C@H]1OC(C)=O (stereo not given in full) | SF-295 CNS | f

I'd appreciate the recorded outcome for `COc1ccc2c(c1OC)C(=O)O[C@H]2[C@H]1c2c(cc3c(c2OC)OCO3)CCN1C` from this test. f

I'd appreciate the recorded outcome for `COc1ccc(-c2cnc3ccccc3n2)cc1` from this test. f

I'd appreciate the recorded outcome for `CCCCCCn1c(-c2ccc(C(=O)O/N=C(\N)c3ccc4ccccc4c3)cc2)nc(-c2ccccc2)c1-c1ccccc1` from this test. f

I'd appreciate the recorded outcome for COc1cccc2nc3n(c12)C(c1c(F)cccc1F)SC3 (stereo not given) from this test. f

I'd appreciate the recorded outcome for `O=C(O)c1cn(C2CC2)c2cc(N3CCN(C(=O)Nc4nc(-c5ccccc5)cs4)CC3)c(F)cc2c1=O` from this test. f

I'd appreciate the recorded outcome for `COc1cc(CNS(=O)(=O)c2ccc(C)cc2)ccc1OCc1cn(-c2ccccc2)nn1` from this test. f

I'd appreciate the recorded outcome for `CCOC(=O)Cn1c(=O)c2c(c3ccccc3n2C)n2nnc(-c3ccccc3)c12` from this test. f

---

- Test system: MDA-MB-231 breast
- ASSAY NOTES: NCI-60 one-dose screen, 48 h (100 = growth as untreated, 0 = no growth, -100 = all killed)
- SETTINGS: 10 µM unless noted
The panel holds about 83,000 compounds, 20% with a hit somewhere; the sample as a whole holds those more often.
A collection of compounds and their measured growth
Provide only the numeric value, understood in %.

Entry `COc1cc(C)c(Cc2cnc(N)nc2N)cc1OC` ; growth = 109

Entry `Cc1cc(C)c(-c2c(N)cc(Br)cc2Br)c(N)c1` ; growth = 56.4

Entry `O=[N+]([O-])c1ccc(Cl)c(-c2cc(CCCCO)on2)c1` ; growth = 103

---

- Test system: PC-3 prostate
- ASSAY NOTES: NCI-60 one-dose screen, 48 h (100 = growth as untreated, 0 = no growth, -100 = all killed)
- SETTINGS: 10 µM unless noted
- Protocol: Growth inhibition of the PC-3 human tumor cell line is measured as a screen for anti-cancer activity. Cells are grown in 96 well plates and exposed to the test compound for 48 hours. Compounds are tested at a single concentration, which is 10^-5 M for most compounds. The reported endpoint is percent growth (GI% or GIPRCNT), where numbers from 0 - 100% represent growth inhibition, and numbers from -100% - 0 represent cell death. For example, a value of 40 represents 60% growth inhibition. […]
About 83,000 compounds went through this panel and 20% of them were active in at least one assay; those are over-represented in the sample as a whole.
A collection of compounds and their measured growth
Provide only the numeric value, understood in %.

STRUCTURE NOTATION | VALUE REPORTED
COc1ccc2c(c1)c(-c1nn3cc(-c4cccs4)nc3s1)cn2C | 69.6

Entry `c1ccc(Cc2nn3cc(-c4ccccc4)nc3s2)cc1` ; growth = 93.7

Entry `NC(=O)Nc1ccc2ncnc(Nc3ccc(Cl)cc3)c2c1` ; growth = 79

Entry `COc1cc(/C=C/c2c(C(C)=O)c(C)nc3ccccc23)cc(OC)c1OC` ; growth = 32.5

---

A collection of compounds and their measured growth
- Test system: NCI/ADR-RES ovarian
- ASSAY NOTES: NCI-60 one-dose screen, 48 h (100 = growth as untreated, 0 = no growth, -100 = all killed)
- SETTINGS: 10 µM unless noted
Compounds without any hit were thinned out: in the full panel of roughly 83,000, 20% have a hit.
Provide only the numeric value, understood in %.

Examples with answers:
COMPOUND | UNIT ABBREV | growth
CCCCn1c(=O)c(-c2cc(-c3ccc(Cl)cc3)nc(-c3ccc(Cl)cc3)c2)cc2cc(C)ccc21 | % | 104
CN(C)CC#Cc1ccc2ncc(C#N)c(Nc3ccc(F)c(Cl)c3)c2c1 | % | 42.9
CN(C)CCNc1nc2ccccc2c2c(=O)c3cc(F)ccc3sc12 | % | 38.3
CN(C)CCN1CCN(c2ncccc2C2Nc3ccccc3-n3cccc32)CC1 (stereo not given) | % | 104
COc1cc(/C=C/C(=O)/C=C/c2cc(OC)c3c(c2OC)OCO3)c(OC)c2c1OCO2 | % | 28.3

Next compound, please.
Entry `CCOC(=O)c1sc2ncc(-c3ccc(OC)cc3)n2c1C` ; growth = 92.3

src = PubChem BioAssay (NCI)
